- TEST_NAME: Pharmacokinetic study after single oral administration
- Type: in vivo, Rat
- CONDITIONS: male, Sprague-Dawley (SD), plasma; Rat, oral, 20 mg/kg, 0.25 h; read-out: Plasma Conc.
MEASURED_PARAMETER: concentration at 0.25 h (ng/mL)
Just the number please, in ng/mL, no unit attached.

Task: Query: concentration at 0.25 h; subject: Cc1cc(NCCCNc2ccnc3cc(Cl)ccc23)nc(N2CCN(C)CC2)n1
Output: 6.68

Task: Another compound: Clc1ccc2c(NCCN3CCN(c4ccnc(-n5ccnc5)n4)CC3)ccnc2c1
Output: 118

Task: Another compound: Cc1cc(NCCCNc2ccnc3cc(Cl)ccc23)nc(N2CCCC2)n1
Output: 16

====

Hi there, I'd appreciate the recorded concentration at 0.5 h for every entry that follows.
- TEST_NAME: Pharmacokinetic study after single oral administration
- Type: in vivo, Rat
- CONDITIONS: male, Sprague-Dawley (SD), plasma; Rat, oral, 20 mg/kg, 0.5 h; read-out: Plasma Conc.
Just the number please, in ng/mL, no unit attached.

Task: Query: concentration at 0.5 h; subject: Cc1cc(NCCCNc2ccnc3cc(Cl)ccc23)nc(N2CCCC2)n1 [comp. ex. 3]
Output: 16.6

Task: Another compound: Clc1ccc2c(NCCN3CCN(c4ccnc(-n5ccnc5)n4)CC3)ccnc2c1 [Formula (II)]
Output: 559

Task: Another compound: Cc1cc(NCCCNc2ccnc3cc(Cl)ccc23)nc(N2CCN(C)CC2)n1 [comp. ex. 2]
Output: 9.91

====

Hi there, I'd appreciate the recorded concentration at 1 h for every entry that follows.
- TEST_NAME: Pharmacokinetic study after single oral administration
- Type: in vivo, Rat
- CONDITIONS: male, Sprague-Dawley (SD), plasma; Rat, oral, 20 mg/kg, 1 h; read-out: Plasma Conc.
Just the number please, in ng/mL, no unit attached.

Task: Query: concentration at 1 h; subject: Cc1cc(NCCCNc2ccnc3cc(Cl)ccc23)nc(N2CCN(C)CC2)n1
Output: 13.9

Task: Another molecule: Cc1cc(NCCCNc2ccnc3cc(Cl)ccc23)nc(N2CCCC2)n1
Output: 19.4

Task: Another molecule: Clc1ccc2c(NCCN3CCN(c4ccnc(-n5ccnc5)n4)CC3)ccnc2c1
Output: 1180

====

Hi there, I'd appreciate the recorded concentration at 8 h for every entry that follows.
- TEST_NAME: Pharmacokinetic study after single oral administration
- Assay type: in vivo, Rat
- CONDITIONS: male, Sprague-Dawley (SD), plasma; Rat, oral, 20 mg/kg, 8 h; read-out: Plasma Conc.
Just the number please, in ng/mL, no unit attached.

Task: Query: concentration at 8 h; subject: Cc1cc(NCCCNc2ccnc3cc(Cl)ccc23)nc(N2CCCC2)n1
Output: 14.5

Task: Another molecule: Cc1cc(NCCCNc2ccnc3cc(Cl)ccc23)nc(N2CCN(C)CC2)n1
Output: 16.5

Task: Another molecule: Clc1ccc2c(NCCN3CCN(c4ccnc(-n5ccnc5)n4)CC3)ccnc2c1
Output: 294

====

- ASSAY_SYSTEM: UniProtKB P43354
- Sequence (P43354 360-595 limits assumed): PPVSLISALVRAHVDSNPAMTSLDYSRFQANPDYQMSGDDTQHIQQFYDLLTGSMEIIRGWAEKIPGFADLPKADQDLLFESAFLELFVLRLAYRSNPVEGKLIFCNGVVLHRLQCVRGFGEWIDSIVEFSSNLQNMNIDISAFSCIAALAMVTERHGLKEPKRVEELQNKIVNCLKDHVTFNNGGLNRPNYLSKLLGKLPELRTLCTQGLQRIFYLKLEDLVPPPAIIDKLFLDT
Hi there, I'd appreciate the recorded pKi for every entry that follows.
# pKi is unitless: minus log10 of the molar concentration; print number only

Task: Query: pKi; subject: CCN1CCN(c2cc(NCCNc3ccnc4cc(Cl)ccc34)nc(N3CCN(CC)CC3)n2)CC1
Output: 7.96

Task: Another molecule: CCN(CC)CCCC(C)Nc1ccnc2cc(Cl)ccc12 (centres unmarked)
Output: 7.55

The values you see were collected from patent US20230312510A1.
